Known Papp B→A at 2 h, 1 μM of a selection of compounds
method summary: Caco-2 Permeability Assay
Format: in vitro ADME
condition details: human, Caco-2, pH 7.4, basolateral to apical; read-out: Caco2 Papp (BA)
endpoint name: Papp B→A at 2 h, 1 μM

>>> df
                                    compound          endpoint_name      recorded_value
 0  CC(C)(O)Cn1cnc2c(-c3cccnc3)nc(-c3ccc(C(F)(F)F)nc3)cc2c1=O [Compound 9]  Papp B→A at 2 h, 1 μM     > 10 ×10⁻⁶ cm/s
 1  Cn1cc(-c2nc(-c3ccc(C(F)(F)F)cn3)cc3c(=O)n(CC(C)(C)O)cnc23)cn1 [Compound 103]  Papp B→A at 2 h, 1 μM      < 2 ×10⁻⁶ cm/s
 2  C[C@@H](CO)n1cnc2c(-c3cncc(F)c3)nc(-c3ccc(OC(F)(F)F)cc3)cc2c1=O [Compound 1]  Papp B→A at 2 h, 1 μM      < 2 ×10⁻⁶ cm/s
 3  C[C@@H](CO)n1cnc2c(-c3cccc(F)c3)nc(-c3ccc(C(F)(F)F)nc3)cc2c1=O [Compound 8]  Papp B→A at 2 h, 1 μM  2 to 10 ×10⁻⁶ cm/s
 4  CC(C)(O)Cn1cnc2c(-c3cccnc3)nc(-c3ccc(Cl)cc3)cc2c1=O [Compound 18]  Papp B→A at 2 h, 1 μM  2 to 10 ×10⁻⁶ cm/s
 5  C[C@@H](CO)n1cnc2c(-n3ccnc3)nc(-c3ccc(OC(F)(F)F)cc3)cc2c1=O [Compound 44]  Papp B→A at 2 h, 1 μM  2 to 10 ×10⁻⁶ cm/s
 6  C[C@@H](CO)n1cnc2c(-c3cnn(C)c3)nc(-c3ccc(Cl)cc3)cc2c1=O [Compound 27]  Papp B→A at 2 h, 1 μM      < 2 ×10⁻⁶ cm/s
 7  Cc1ccc(-c2cc3c(=O)n([C@@H](C)CO)cnc3c(-c3cccnc3)n2)cc1 [Compound 17]  Papp B→A at 2 h, 1 μM  2 to 10 ×10⁻⁶ cm/s
 8  C[C@@H](n1cnc2c(-c3cccnc3)nc(-c3ccc(Cl)cc3)cc2c1=O)C(C)(C)O [Compound 33]  Papp B→A at 2 h, 1 μM  2 to 10 ×10⁻⁶ cm/s
 9  C[C@H](n1cnc2c(-c3cnn(C)c3)nc(-c3ccc(Cl)cc3)cc2c1=O)C(C)(C)O [Compound 30]  Papp B→A at 2 h, 1 μM      < 2 ×10⁻⁶ cm/s
10  C[C@@H](CO)n1cnc2c(-c3cccnc3)nc(-c3ccc(OC(F)(F)F)cc3)cc2c1=O [Compound 22]  Papp B→A at 2 h, 1 μM  2 to 10 ×10⁻⁶ cm/s
11  C[C@@H](CO)n1cnc2c(-c3cccnc3)nc(-c3ccc(C(F)(F)F)nc3)cc2c1=O [Compound 12]  Papp B→A at 2 h, 1 μM     > 10 ×10⁻⁶ cm/s
12  CC(C)(O)Cn1cnc2c(-c3cccnc3)nc(-c3ccc(C(F)(F)F)cn3)cc2c1=O [Compound 105]  Papp B→A at 2 h, 1 μM  2 to 10 ×10⁻⁶ cm/s
13  Cn1cc(-c2nc(-c3ccc(C(F)(F)F)nc3)cc3c(=O)n(CC(C)(C)O)cnc23)cn1 [Compound 60]  Papp B→A at 2 h, 1 μM  2 to 10 ×10⁻⁶ cm/s

###

method summary: In vivo PK study in male Sprague Dawley rats
condition details: male, Sprague Dawley, rat, plasma; rats, 1 mg/kg IV
Response field label: string, one of satisfied (C0 strictly below 300 ng/mL) or not satisfied.

>>> print(df.to_string())
                                test_smiles    group_label
0  C[C@H](n1cnc2c(-c3cnn(C)c3)nc(-c3ccc(Cl)cc3)cc2c1=O)C(C)(C)O  not satisfied
1  Cn1cc(-c2nc(-c3ccc(C(F)(F)F)nc3)cc3c(=O)n(CC(C)(C)O)cnc23)cn1  not satisfied
2  O=c1c2cc(-c3ccc(C(F)(F)F)nc3)nc(-c3cccnc3)c2ncn1[C@@H]1COC[C@H]1O  not satisfied
3  C[C@@H](CO)n1cnc2c(-c3cccc(F)c3)nc(-c3ccc(Cl)cc3)cc2c1=O      satisfied
4  CC(C)(O)Cn1cnc2c(-c3cccnc3)nc(-c3ccc(C(F)(F)F)cn3)cc2c1=O  not satisfied
5  Cn1cc(-c2nc(-c3ccc(C(F)(F)F)cn3)cc3c(=O)n(CC(C)(C)O)cnc23)cn1      satisfied

###

method summary: In vivo PK study in male Sprague Dawley rats
condition details: male, Sprague Dawley, rat, plasma; rats, 1 mg/kg IV; read-out: AUCInf Mean
Lab note: anything with AUC(0-inf) at or over 2000 ng·h/mL counts as satisfied; the rest go in not satisfied.

>>> df
                                test_smiles    group_label
0  CC(C)(O)Cn1cnc2c(-c3cccnc3)nc(-c3ccc(C(F)(F)F)cn3)cc2c1=O      satisfied
1  O=c1c2cc(-c3ccc(C(F)(F)F)nc3)nc(-c3cccnc3)c2ncn1[C@@H]1COC[C@H]1O  not satisfied
2  Cn1cc(-c2nc(-c3ccc(C(F)(F)F)nc3)cc3c(=O)n(CC(C)(C)O)cnc23)cn1      satisfied
3  Cn1cc(-c2nc(-c3ccc(C(F)(F)F)cn3)cc3c(=O)n(CC(C)(C)O)cnc23)cn1      satisfied
4  C[C@@H](CO)n1cnc2c(-c3cccc(F)c3)nc(-c3ccc(Cl)cc3)cc2c1=O  not satisfied
5  C[C@@H](CO)n1cnc2c(-c3cccnc3)nc(-c3ccc(C(F)(F)F)cn3)cc2c1=O      satisfied

###

method summary: In vivo PK study in male CD1 mice
condition details: male, CD1, plasma, oral, 10 mg/kg; in vivo DMPK profile, mouse; read-out: Mouse % F
The following molecules are shown together with reported bioavailability values.
endpoint name: bioavailability (%)

>>> df
                                test_smiles  recorded_value
0  C[C@@H](CO)n1cnc2c(-c3cccnc3)nc(-c3ccc(C(F)(F)F)cn3)cc2c1=O            80.6
1  CC(C)(O)Cn1cnc2c(-c3cccnc3)nc(-c3ccc(C(F)(F)F)nc3)cc2c1=O            70.3

###

Readings of AUC(0-t) for the listed compounds
method summary: In vivo PK study in male CD1 mice
condition details: male, CD1, mouse, plasma; mice, 1 mg/kg IV; read-out: AUCLast Mean
endpoint name: AUC(0-t) (ng·h/mL)

>>> df
                                   compound  endpoint_name  value_unit  recorded_value
0  Cn1cc(-c2nc(-c3ccc(C(F)(F)F)nc3)cc3c(=O)n(CC(C)(C)O)cnc23)cn1 [Compound 60]       AUC(0-t)     ng·h/mL            6520
1  Cc1ccc(-c2cc3c(=O)n([C@@H](C)CO)cnc3c(-c3cccnc3)n2)cc1 [Compound 17]       AUC(0-t)     ng·h/mL             231
2  C[C@@H](CO)n1cnc2c(-c3cccnc3)nc(-c3ccc(C(F)(F)F)cn3)cc2c1=O [Compound 46]       AUC(0-t)     ng·h/mL            8400
3  Cn1cc(-c2nc(-c3ccc(C(F)(F)F)cn3)cc3c(=O)n(CC(C)(C)O)cnc23)cn1 [Compound 103]       AUC(0-t)     ng·h/mL           10400
4  CC(C)(O)Cn1cnc2c(-c3cccnc3)nc(-c3ccc(C(F)(F)F)cn3)cc2c1=O [Compound 105]       AUC(0-t)     ng·h/mL           11300
5  CC(C)(O)Cn1cnc2c(-c3cccnc3)nc(-c3ccc(Cl)cc3)cc2c1=O [Compound 18]       AUC(0-t)     ng·h/mL            6770
6  C[C@H](n1cnc2c(-c3cnn(C)c3)nc(-c3ccc(Cl)cc3)cc2c1=O)C(C)(C)O [Compound 30]       AUC(0-t)     ng·h/mL            6380
7  CC(C)(O)Cn1cnc2c(-c3cccnc3)nc(-c3ccc(C(F)(F)F)nc3)cc2c1=O [Compound 9]       AUC(0-t)     ng·h/mL            4880

###

tested target: AHR (Homo sapiens, UniProt P35869)
Construct: other cell line with a DRE-luciferase reporter stably transfected; endogenous in cells
Sequence (P35869 11-848): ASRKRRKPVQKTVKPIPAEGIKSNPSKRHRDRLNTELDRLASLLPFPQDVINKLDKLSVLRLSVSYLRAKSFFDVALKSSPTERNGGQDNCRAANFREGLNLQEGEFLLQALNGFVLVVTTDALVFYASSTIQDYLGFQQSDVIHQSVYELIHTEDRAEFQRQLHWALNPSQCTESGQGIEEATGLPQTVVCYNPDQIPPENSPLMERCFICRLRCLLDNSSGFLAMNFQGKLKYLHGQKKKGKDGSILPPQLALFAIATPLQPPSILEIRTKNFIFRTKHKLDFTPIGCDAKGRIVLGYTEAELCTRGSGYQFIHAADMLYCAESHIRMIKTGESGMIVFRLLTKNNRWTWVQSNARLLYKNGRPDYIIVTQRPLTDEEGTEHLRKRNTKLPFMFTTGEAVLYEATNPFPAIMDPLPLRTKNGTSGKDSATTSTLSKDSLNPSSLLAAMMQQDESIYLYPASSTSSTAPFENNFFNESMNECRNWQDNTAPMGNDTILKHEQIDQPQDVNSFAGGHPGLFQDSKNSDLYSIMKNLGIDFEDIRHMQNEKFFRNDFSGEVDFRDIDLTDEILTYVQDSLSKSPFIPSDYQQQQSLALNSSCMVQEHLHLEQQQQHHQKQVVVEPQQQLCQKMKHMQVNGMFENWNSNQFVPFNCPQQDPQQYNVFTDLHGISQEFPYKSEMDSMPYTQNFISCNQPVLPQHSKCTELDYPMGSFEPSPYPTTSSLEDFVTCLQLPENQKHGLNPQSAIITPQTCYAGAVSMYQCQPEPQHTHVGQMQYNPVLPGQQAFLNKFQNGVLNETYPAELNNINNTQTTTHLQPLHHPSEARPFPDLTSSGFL
method summary: DRE-Luciferase Reporter Assay, HepG2 AhR-Lucia reporter cells
condition details: with AHR activating ligand at EC50, read-out: HepG2-Luc IC50
pIC50: −log10 of the molar value.
endpoint name: pIC50

                                   molecule  endpoint_name  recorded_value
0  CC(C)(O)Cn1cnc2c(-c3cccnc3)nc(-c3ccc(C4CC4)nc3)cc2c1=O [Compound 81]          pIC50          > 7.00
1  C[C@@H](CO)n1cnc2c(-c3cnsc3)nc(-c3cnsc3)cc2c1=O [Compound 56]          pIC50    6.30 to 7.00
2  C[C@@H](O)Cn1cnc2c(-c3cnn(C)c3)nc(-c3ccc(C(F)(F)F)cn3)cc2c1=O [Compound 141]          pIC50          > 7.00
3  Cc1cnc(-c2cc3c(=O)n([C@@H](C)CO)cnc3c(-c3cccnc3)n2)nc1 [Compound 187]          pIC50          < 6.30

Values from patent US20230295152A1
